Cited source: the supplement of paper PMC9170038

System: MS2 coat protein
Assay: apparent KD of MS2 coat protein; higher = weaker reporter binding
Details: Eterna round: R107; input ligand: tryptophan 2.4 mM
property name: apparent KD of MS2 coat protein (nM)
Answers are plain numbers, in nM.

Quick batch: apparent KD of MS2 coat protein for everything below.
1. GAACAUGAGGAUCACCCAUGUAAAACAGAUACCAGUGAUAUAAUACACCCUUGGCAGCUGAAGCUGAAUAAUAAUUCCCUCAAGC [Same State Theophylline A GF1]
2. ACAUGAACAUGAGGAUCACCCAUGUAUGAUACCAGAAAAGAAGAGUUCCCUUGGCAGCGUACAACACAUGAGGAUCACCCAUGUG [kvcmullin]
3. UUUAAUUUAAUAGAUACCAGCUAAUAAUAAUCCCGGAGGACAUGAGGAUCACCCAUGUGGAGCCCUUGGCAGCUAAAAUAAAUUU [Exclusion - Theophylline B]

Output line:
1. 15
2. 26.1
3. 28.9

###

System: MS2 coat protein
Assay: apparent KD of MS2 coat protein; designed switch direction (-1 OFF switch, 1 ON switch): -1; higher = weaker reporter binding
Conditions: input ligand: FMN 200 uM
# if value of apparent KD of MS2 coat protein reaches 20 nM, tag T; if it stays below, tag F

Worked cases, answers included:
sequence data | class
AUUAACAUGUUGAUCAAAUACAUGAGGAUCACCCAUGUAUGCUUUUUGCUCGAUAAGAUCAACUAAUUAAUUAAUUA [StovNew/1-B] (Eterna round: R97, puzzle: Sensor, turn-off variant 1) | F
UACAUGAGGAUCACCCAUGUUUUGUCGUGUUUGGUACCCGUUUAGGAUAUCGUGUUAUUGUAUCGCGAGAAGGAGAGUAUCUUU [Excl-NG3-LRO09] (Eterna round: R96, puzzle: Exclusion NG 3) | T
UCUCGCGUCGAGGAUAUAUCGUGUAAGUGCGCGAUAGAAGGCGACACAUGAGGAUCACCCAUGUAGGGCCGAAC [Eternabot (Original) Solution 14] (Eterna round: R97, puzzle: Exclusion 6) | T
CGCUGGACAGGAUAUGUUCUUGGGCACUUGAGGAUCACCCAAGUCAUCGGGACAUCAGGCACAGAAGGGUUUAUGG [salish99_ex5_r4_026] (Eterna round: R97, puzzle: Exclusion 5) | F

Now take the following sequence into account.
Input line: apparent KD of MS2 coat protein >= 20 nM for CUUUUGUGAGGAUAUUAAUAGUAAGUAAAUAAAAUUAUUACUAAGAAGGCACAUGAGGAUCACCCAUGUUUCUC [EX4 #83] (Eterna round: R97, puzzle: Exclusion 4) ?
Output line: T

###

Test system: MS2 coat protein
Assay: apparent KD of MS2 coat protein, switch OFF state (with FMN for OFF switches, without FMN for ON switches); designed switch direction (-1 OFF switch, 1 ON switch): -1; higher = weaker reporter binding
Conditions: FMN input: 0 or 200 uM; Eterna round: R93 (includes R88 designs)
property name: apparent KD of MS2 coat protein (nM)
Give bare numbers, in nM.

sequence data | assay system | units text | apparent KD of MS2 coat protein
GAAAAGUGAGGAUAUGUCAAAAGUCACAAAAGUGACAAAAGACAGAAGGCACAUGAGGAUCACCCAUGUGGAAA [Mat - Exaclusion 4 - Eli mod - D51] | MS2 coat protein | nM | 38.4
AACUGACAUGAGGAUCACCCAUGUCAGGAUAUGCUUCUAGGAAAAAUAAAAACUAGAUGCAGAAGGGAUAUGGG [Design 38] | MS2 coat protein | nM | 33.3
AAAAAGUCAGGAUAUAGAAAAGGUCACGAAAGUGACAAAGGCUAGAAGGGACAUGAGGAUCACCCAUGUAAAAA [Mat - Mod of Eli] | MS2 coat protein | nM | 28.8
CAGUACUGAGGAUAUACAUGAGGAUCACCCAUGUGAAAAAGCUACGAAAGUAGCAAAUGUAGAAGGCAGUACUG [Ex3: 806] | MS2 coat protein | nM | 273

Quick batch: apparent KD of MS2 coat protein for everything below.
1. AGAAAACAUGAGGAUCACCCAUGUCAGGAUAUCGAUGUCCAAAAAAAAGUGCGGGACUCGAGAAGGGACUUGGG [Mod of Erbelaed v.2 (favor state 2,lowered kcal by 2.7)]
2. AUAUAACAUGAGGAUCACCCAUGUCAGGAUAUCGAACCCAACACAACCAAAAUGUCGGCGAGAAGGGACAAAAA [Default title]
3. AUGUACCUAGGAUAUACAUGAGGAUCACCCAUGUUCCGGGAGCAAUCAAGUUAAUAUUGUAGAAGGAGGUGAAA [JR_Exc003_Sub314]
4. GUGUACAGAGGAUAUACAUAAGCAUGGAAACAUGCAAGAUCACAUGAGGAUCACCCAUGUAGAAGGCUGUACAC [Ex2: 738]
5. GAAAAACAUGAGGAUCACCCAUGUCAGGAUAUCGAAAAAAAUAAAAAAGAAAAGAAAACGAGAAGGGACAAAAG [Mat - Same state - Mayanna Mod - D112]

Output line:
[24.6, 22.6, 28.4, 180, 47.1]

###

Test system: MS2 coat protein
Test: apparent KD of MS2 coat protein, switch ON state; designed switch direction (-1 OFF switch, 1 ON switch): 1; higher = weaker reporter binding
Details: FMN input: 0 or 200 uM; Eterna round: R93 (includes R88 designs)
# if value of apparent KD of MS2 coat protein reaches 20 nM, tag Criterion met; if it stays below, tag Criterion not met

Input line: apparent KD of MS2 coat protein >= 20 nM for AGAUCUAGAAGGUAGGAUAUGUGUAAAAAUACAUGAGGAUCACCCAUGUGAUGAAUAAAAAGAAAAUAGAAGGACCAUCUAGAUC [Cross swing 3] ?
Output line: Criterion not met

Input line: Can you check CGGAAGGAGAGGGAGGAUAUCCAAAGGAAAACAUGAGGAUCACCCAUGUAGAAGGUAGGAAAUUGGGAGAAGGCUCAAGAGAGAG [salish99-ss2-131] next?
Output line: Criterion met

Input line: Can you check AAAAAAAGAUCACAGGAUAUACGAAAAAAAACAUGAGGAUCACCCAUGUAAAAAAAAAAAAAAAAGUAGAAGGGUGAUCCAAAAAA next?
Output line: Criterion met

Input line: Can you check AUAACACAUGAGGAUCACCCAUGUAGAUACCCGUCAGGAUAUGCAAAGAAAAUAAACAAAGCAGAAGGGACAAUAA [SS 1 Tesla 2] next?
Output line: Criterion met

Input line: Can you check AAAAAAAAAAGUCAGGAUAUGCAGGGCGGGACAUGAGGAUCACCCAUGUGGCGGAAAAAAAAAAAGCAGAAGGGACGAAUAAAAAA [William Edwards Deming] next?
Output line: Criterion met

###

System: MS2 coat protein
Test: apparent KD of MS2 coat protein; designed switch direction (-1 OFF switch, 1 ON switch): -1; higher = weaker reporter binding
Details: input ligand: none
For each of the sequences below, state its apparent KD of MS2 coat protein.
Numbers only, in µM.

Consider the following illustrative entries.
sequence data | assay system | apparent KD of MS2 coat protein [µM]
GCUGGACAAGGAUAUGCAAUCGUGCUUCGGCACGUAAGGUCACAUGAGGAUCACCCAUGUAGAAGGUGUCCAGC [E2/4-C2] (Eterna round: R97, puzzle: Exclusion 2) | MS2 coat protein | 0.0161
GACUGUCGAGAGGAUAUCUUUCCCAAGCGGGUCAGAGAAGGCUUGACAUGAGGAUCACCCAUGUUGAUUGCUAG [EX6 C.23] (Eterna round: R97, puzzle: Exclusion 6) | MS2 coat protein | 0.14
ACAAGCUUUUAGAUUCUUAACAUGAGGAUCACCCAUGUGCUCGUCUUACCGGCCGGCGGGCCGCCGGCCGGGCUUGU (Eterna round: R97, puzzle: Sensor, turn-off variant 1) | MS2 coat protein | 0.0185

Quick batch: apparent KD of MS2 coat protein for everything below.
1. UAAUAUCUGCAGGAUAUCGGUGUAGCACGCGUAUGAGAAGGGCAGACAUGAGGAUCACCCAUGUAUUAUAUCCG [Eternabot (L2) Solution 39] (Eterna round: R97, puzzle: Exclusion 6)
2. UCGUGAUUAGAGGAUAUAUUAAGAGUCAGAACAAUAGAAGGCUAAACAUGAGGAUCACCCAUGUAAAUGUGAAA [JR_Ex6_Sub060] (Eterna round: R97, puzzle: Exclusion 6)
3. GCACGGAGUGUAGGAUAUCUGUGCGAUUAGCUCAGAGAAGGACACAUGAGGAUCACCCAUGUGUUCCACGGAAACGUUCCGUGC [Eli exng1 - 049] (Eterna round: R96, puzzle: Exclusion NG 1)

Output line:
1: 0.0245; 2: 0.0355; 3: 0.0119

###

For each of the sequences below, state its apparent KD of MS2 coat protein.
Tested on: MS2 coat protein
Test: apparent KD of MS2 coat protein; designed switch direction (-1 OFF switch, 1 ON switch): -1; higher = weaker reporter binding
Conditions: Eterna round: R95; input ligand: microRNA oligo, concentration not stated
Answers are plain numbers, in nM.

sequence data | property name | units text | assay value
UCGGCGCGAGGAUAUACGUUUGCUUUUUUGUGUCGUUGCGUACAUGAGGAUCACCCAUGUAGAAGGCGCGCCGC [Apr-15 SS2-24] (puzzle: Exclusion 2) | apparent KD of MS2 coat protein | nM | 16

Quick batch: apparent KD of MS2 coat protein for everything below.
1. GUGUAGUCAGGAUAUACAUAGGAAGAGAAGAGAAGAUAAGUACAUGAGGAUCACCCAUGUAGAAGGGACAGUGU [Excluse me!! 7 - Jieux - Exclusion 2] (puzzle: Exclusion 2)
2. CAUACAGUAGUUAGGAUAUUGCAACGUAUACGGAUCGAGAAGGGACAUGAGGAUCACCCAUGUAGAUUGUAAAG [EX-4 Malc #9] (puzzle: Brourd's mod of Exclusion 4)
3. CAUUACUGCAGGCUUCGGGACAUGAGGAUCACCCAUGUUCGUCUUAUUGAUCUAGGUACGCUGACGUACCUAGAUCU [JL-sv1-2.25 Brourd mod] (puzzle: Sensor v3, turn-off variant 1)
4. CACAAGCUUUUUUGUUGCUUUUUAGUUGGUGUGUGAUUUACAUGAGGAUCACCCAUGUUAUUGAUGCUCGAUCUUUU [JR_SV3TOV2_Sub082] (puzzle: Sensor v3, turn-off variant 2)
5. UCGUUUUUUGAGGAUAUGCGACGUUUUUUCGUCGUAGAAGGCGAUACAUGAGGAUCACCCAUGUUUAUGGGCAU [LRO-Ex6-15] (puzzle: Exclusion 6)
6. AUAUCACAUGAGGAUCACCCAUGUCAGGAUAUGAUACUAUGUACUUCGGUACAUAGUAUCAGAAGGGAUAUGAA [Ex1-3: 66] (puzzle: Exclusion 1)
7. AAAAGCUAAGGAUAUACAUGAGGAUCACCCAUGUACACCGGUACGGGUGCGAACUCCUGUAGAAGGUGGGAUAA [Atatlege] (puzzle: Exclusion 3)

Output line:
1: 32.1; 2: 34; 3: 16.1; 4: 143; 5: 148; 6: 45.4; 7: 121

Quick batch: apparent KD of MS2 coat protein for everything below.
1. AUAUCAAGCAAGGAUAUGCAAAUGGUUAUUUAUGCAGAAGGUGCGACAUGAGGAUCACCCAUGUUUCUGGGUUU [JR_E6_Sub050] (puzzle: Exclusion 6)
2. UAACCACAUGAGGAUCACCCAUGUGAGGAUAUGUCCAUAUUCGGCAAAUCGGAUAUGGACAGAAGGCACACCGG [JR_Exclusion1_Sub010] (puzzle: Exclusion 1)
3. GGAUCGAGUGUGAGGAUAUACCACUGGAUACAGUGGUAGAAGGCACAUGAGGAUCACCCAUGUCCCUACGAUCC [Fiskers BMX 4 - 45] (puzzle: Brourd's mod of Exclusion 4)
4. AGUAGUAGUGUCCGAUCCUACAUGAGGAUCACCCAUGUAGCUAGACGUGCACGCGAUGCUCGUCAGACUACCAGAUG [salish99_TOv1_r3_046] (puzzle: Sensor v3, turn-off variant 1)
5. ACAAGCUUUUUGUUCGUCUUAUACACUCCUAAUAAGACAACAUGAGGAUCACCCAUGUAAGAAAUAAGAACUCAUGU [Sesor Array 4 - Jieux - Sensor v3, turn-off variant 2] (puzzle: Sensor v3, turn-off variant 2)

Output line:
68.2
40.7
28.2
88.7
595
